Catalogue of compounds with associated GI50
test system: MDA-MB-231; test: NCI tumour cell line growth inhibition, 48 h
The source made the active and inactive calls. Rule as the data show it: active = GI50 up to about 1.1 µM and inactive = higher.

As a guide, the following entries are already answered.
[
  {
    "Compound": "CSc1cc(Cl)c(C)cc1S(=O)(=O)NC(=O)NNc1ccccn1",
    "Target of assay": "MDA-MB-231",
    "GI50": "> 100 µM (inactive)"
  },
  {
    "Compound": "CC1(C)OC2C(CO)OC(n3ccc(=O)[nH]c3=O)C2O1 (stereo unspecified)",
    "Target of assay": "MDA-MB-231",
    "GI50": "> 100 µM (inactive)"
  },
  {
    "Compound": "CCOC(=O)N1CCNCCN(C(=O)OCC)CCNCC1",
    "Target of assay": "MDA-MB-231",
    "GI50": "> 100 µM (inactive)"
  }
]

Which GI50 is listed for CC1(C)CCCCCCC2OC2CCCCCC(C)(C)C1=O (stereo unspecified) ?
29.9 µM (inactive)

Which GI50 is listed for Cc1ccc(S(=O)(=O)N2CCCC2C(=O)O[C@H]2CC[C@H]3CC=C[C@H]32)cc1 (stereo partly specified) ?
63.4 µM (inactive)

Which GI50 is listed for `C(=N\c1nc2cc3sc(/N=C/c4cccs4)nc3cc2s1)/c1cccs1` ?
> 100 µM (inactive)

Which GI50 is listed for `COc1cc2cc3c4cc(OC)c(OC)cc4cc[n+]3c(C)c2cc1OC.O=C([O-])CS(=O)(=O)O` ?
70.5 µM (inactive)

Which GI50 is listed for COc1ccc(C2CC(c3ccccc3)=Nc3c(-c4ccccc4)nnn32)cc1 (stereo unspecified) ?
85.1 µM (inactive)

Which GI50 is listed for CCOC(=O)C1=C(C)OC2(O)C=CC(O)=C3C(=O)N(c4ccccc4)C(=O)C312 (stereo unspecified) ?
37.8 µM (inactive)

Which GI50 is listed for `c1ccc2c(c1)SC1=Nc3sc4ccccc4[n+]3CN12` ?
18.3 µM (inactive)

Which GI50 is listed for `O=C(O)CSCCc1ccccc1` ?
> 100 µM (inactive)

----------
test system: LOX IMVI; test: NCI tumour cell line growth inhibition, 48 h
The source made the active and inactive calls. No stated cut-off is given here; in the data, active = GI50 up to about 1.1 µM and inactive = higher.
Endpoint: GI50

As a guide, the following entries are already answered.
[
  {
    "Compound": "Cc1ccc(O)c(C2=CC3=NNC(=O)C3C(c3cccc(Cl)c3)C2)c1 (stereo not given)",
    "GI50": "23 µM (inactive)"
  },
  {
    "Compound": "CCOC(=O)CC(C)C1(C(=O)OCC)CCCCC1=O (stereo not given)",
    "GI50": "67.3 µM (inactive)"
  },
  {
    "Compound": "Clc1ccc(Oc2ccc(/N=C/c3ccc(Cl)cc3Cl)cc2Cl)cc1",
    "GI50": "28.3 µM (inactive)"
  },
  {
    "Compound": "CCOC(=O)CCC1(C(=O)OCC)CCCCC1=O (stereo not given)",
    "GI50": "> 100 µM (inactive)"
  },
  {
    "Compound": "CC1(C)C2CCC1C(=O)[C@@]1(C=CC(=O)CC1)C2 (stereo not given in full)",
    "GI50": "> 100 µM (inactive)"
  }
]

Request: GI50, test system LOX IMVI, entry `CCCCOC(=O)CNC(=O)OC/C=C/C#CC#C/C=C/COC(=O)NCC(=O)OCCCC`
> 10 µM (inactive)

Request: GI50, test system LOX IMVI, entry C=C[C@]1(O)CCC[C@]2(C)C(=O)CCC12C (stereo not given in full)
> 100 µM (inactive)

Request: GI50, test system LOX IMVI, entry CCC1CNC(=O)CC1CC(=O)OC (stereo not given)
> 100 µM (inactive)

Request: GI50, test system LOX IMVI, entry CC1(C)CC[C@]2(C(=O)O)CC[C@]3(C)C(=CC[C@@H]4[C@@]5(C)CC[C@H](OC6OC(C(=O)O)C(O)C(O)C6O)C(C)(C)[C@@H]5CC[C@]43C)[C@@H]2C1 (stereo not given in full)
19 µM (inactive)

Request: GI50, test system LOX IMVI, entry `COc1cc(Nc2nc3ccccc3nc2C(=O)O)cc(OC)c1OC`
53 µM (inactive)

Request: GI50, test system LOX IMVI, entry `CCCCCCCc1cscc1-c1cscc1Br`
20.1 µM (inactive)
